System: SW-620
Experiment: NCI tumour cell line growth inhibition, 48 h
The source made the active and inactive calls. Cut-off read from the data, not from the text of the source: active = GI50 up to about 1.1 µM and inactive = higher.
Pick one: active, inactive

1. C=C(CO)[C@H]1Oc2ccc(C(C)=O)cc2[C@@H]1O; inactive
2. CC(C)C(C/C=C1\CC(CO)(COC(=O)C(C)(C)C)OC1=O)C(C)C (stereo not drawn); inactive
3. Nc1nc(N)c(-c2ccc(Cl)cc2)c(CCC(=O)Nc2cccc(C(F)(F)F)c2)n1; inactive
4. CCOC(=O)c1nc2ccccc2nc1NCc1cc(OC)c(OC)c(OC)c1; inactive

Incoming: Please state the recorded outcome for this compound: COc1ccc2c(c1O)-c1c(OC)c(OC)cc3c1[C@H](C2)[N+](C)(C)CC3
Outgoing: inactive

Incoming: Please state the recorded outcome for this compound: CCOC(=O)C(C)c1c(C(=O)c2ccc(C)nc2)c2ccccc2n1C (stereo not drawn)
Outgoing: inactive

Incoming: Please state the recorded outcome for this compound: NC(=O)CCC(NC(=O)c1cccc2c(=O)c3ccccc3[nH]c12)C(=O)O (stereo not drawn)
Outgoing: inactive
